Each entry below carries its reported melting point.

1) CCNc1cc(-c2nc(=O)c3ccccc3s2)ccc1C(=O)OC [compound 15] | 170.8 to 178.2 °C
2) COC(=O)c1cccc(-c2nc(=O)c3ccccc3s2)c1 [Example 21] | 164.3 to 164.4 °C
3) Cc1cc(Cl)ccc1-c1nc(=O)c2ccccc2s1 [compound 14] | 134.1 to 134.2 °C
4) CC(C)=C1NC(=O)c2ccccc2S1 [Example 5] | 187.1 to 188.3 °C
5) O=c1nc(-c2ccc(O)cc2)sc2ccccc12 [Example 12] | 275 °C (dec.)
6) CC(=O)c1ccc(-c2nc(=O)c3ccccc3s2)cc1 [Example 10] | 197.5 to 197.6 °C

Exercise: Return reported melting point; argument: COC(=O)C(Cc1cccc(-c2nc(=O)c3ccccc3s2)c1)NC(=O)c1ccccc1 (stereo not drawn) [Example 22]
Solution: 130.9 to 131 °C

Exercise: Entry to check: O=c1nc(-c2ccc(C(F)(F)F)cc2)sc2ccccc12 [Example 9]
Solution: 122.5 to 122.6 °C

Exercise: Entry to check: O=c1nc(-c2cccc(Br)c2)sc2ccccc12 [Example 11]
Solution: 161.6 to 161.7 °C

Exercise: Entry to check: CC(=O)Nc1ccc(-c2nc(=O)c3ccccc3s2)cc1 [Example 16]
Solution: 231.4 to 231.5 °C

Exercise: Entry to check: O=C1NC(=C2CCC2)Sc2ccccc21 [Example 2]
Solution: 146.7 to 149.4 °C
